# Test system: SNB-19 CNS
# experimental-details: NCI-60 one-dose screen, 48 h (100 = growth as untreated, 0 = no growth, -100 = all killed)
# assay-conditions: 10 µM
About 83,000 compounds went through this panel and 20% of them were active in at least one assay; those are over-represented in the sample as a whole.
reported-metric: growth (%)
API: value field is a number in %; no unit string.

These solved cases illustrate the format of a correct answer.
Cc1ccc(NC(=S)NNC(=S)Nc2ccc(C)cc2)cc1	65.4
CCCCCOC(=O)Nc1nc(=O)n(C2O[C@H](C)[C@@H](O)[C@H]2O)cc1F (stereo partly drawn)	101

Challenge: # value lookup — system SNB-19 CNS, readout growth, item `COc1ccc(-c2nn(-c3cccc(Cl)c3)cc2-c2cc(-c3cccs3)[nH]c(=S)n2)cc1`
Response given: 44.7

Challenge: # value lookup — system SNB-19 CNS, readout growth, item `COc1cc(OC)c2c(=O)c(O)c(-c3ccccc3)oc2c1`
Response given: 62.4

Challenge: # value lookup — system SNB-19 CNS, readout growth, item `N#Cc1cnn(C(=O)c2nn(-c3ccc(Cl)cc3)cc2O)c1N`
Response given: 32.5

Challenge: # value lookup — system SNB-19 CNS, readout growth, item `Cn1cnc([N+](=O)[O-])c1/C=C1\Oc2ccc(Br)cc2C1=O`
Response given: 90.1

Challenge: # value lookup — system SNB-19 CNS, readout growth, item Cc1c(O)c(=O)ccn1C1CCC(CC2CCC(n3ccc(=O)c(O)c3C)CC2)CC1 (stereo not drawn)
Response given: 30.2

Challenge: # value lookup — system SNB-19 CNS, readout growth, item `O=C1/C(=C/c2cccc(F)c2)Cc2ccccc21`
Response given: 98.7

Challenge: # value lookup — system SNB-19 CNS, readout growth, item `COc1ccc2c(c1)C(=O)/C(=C/c1ncc([N+](=O)[O-])n1C)O2`
Response given: -16.6
